// provenance: PubChem BioAssay (NCI)

Experiment: NCI Yeast Anticancer Drug Screen. Data for the cln2 rad14 strain (AID 165)
Conditions: S. cerevisiae cln2 rad14 strain, at 50.0 µM
This is part of a sample that, as a whole, favours compounds with a hit. Of some 79,000 tested, about 15% had one in any assay. Active and inactive are the calls of the source. Rule as the data show it: active = growth inhibition above about 70%; inactive = the rest.
Labels: true for active, false for inactive

[
  {
    "compound": "CCC(C)OC(=O)C1C(=O)CC(c2ccccc2)C1c1ccccc1 (stereo not drawn)",
    "class assignment": "false"
  },
  {
    "compound": "Clc1cccc(-c2nnc(-c3nn(-c4ccccc4)c4nc5ccccc5nc34)o2)c1",
    "class assignment": "false"
  },
  {
    "compound": "CCC(c1ccc(OCC(=O)N2CC2)cc1)C(CC)c1ccc(OCC(=O)N2CC2)cc1 (stereo not drawn)",
    "class assignment": "false"
  },
  {
    "compound": "COC1=CC(=O)N(C)C(O)C1(C#N)OC1OC(CO)C(O)C(O)C1O (stereo not drawn)",
    "class assignment": "false"
  },
  {
    "compound": "CCCCCCCCCCCCCCCC(=O)NC(CCCCN)C(=O)NC(CCCCN)C(=O)OCC (stereo not drawn)",
    "class assignment": "true"
  },
  {
    "compound": "O=C(/C=C/c1ccc(OCC(=O)N2CCN(c3ccccc3)CC2)cc1)c1ccc(Cl)cc1",
    "class assignment": "false"
  },
  {
    "compound": "NC(=S)Nc1ccccc1-c1ccccc1",
    "class assignment": "false"
  },
  {
    "compound": "CCOC(=O)/C(C#N)=C/Nc1c(C)n(C)n(-c2ccccc2)c1=O",
    "class assignment": "false"
  },
  {
    "compound": "CCOC(=O)c1c(NCc2ccccc2)n(-c2ccccc2)c(=S)n(-c2ccccc2)c1=O",
    "class assignment": "false"
  },
  {
    "compound": "CCCCCCCc1c(C)c2ccc(OC)cc2[nH]c1=O",
    "class assignment": "false"
  },
  {
    "compound": "O=C1OC(c2cccc(Cl)c2)=N/C1=C\\c1ccc(Cl)cc1",
    "class assignment": "false"
  },
  {
    "compound": "CN=C(N)SCCCSC(N)=NC",
    "class assignment": "false"
  },
  {
    "compound": "CCC1(CCCCCBr)OCCO1",
    "class assignment": "false"
  },
  {
    "compound": "O=C(NCC1(O)CCCCC1)c1ccccc1",
    "class assignment": "false"
  },
  {
    "compound": "CC(=O)OCCOCCN1CCN(c2c(O)c3c(c(O)c2Cl)C(=O)C=CC3=O)CC1",
    "class assignment": "true"
  },
  {
    "compound": "O=C(O)C1C2OC3C(OC(=O)C31)C2Cl (stereo not drawn)",
    "class assignment": "false"
  },
  {
    "compound": "CCN=c1c([N+](=O)[O-])c(NC(=O)c2ccccc2)sn1CC",
    "class assignment": "false"
  },
  {
    "compound": "O=C1Oc2ccccc2CC1C(=O)c1ccc(Cl)cc1 (stereo not drawn)",
    "class assignment": "false"
  },
  {
    "compound": "COc1ccc2c(c1OC)C1NCCc3cc4c(cc3C1(OC)C2=O)OCO4 (stereo not drawn)",
    "class assignment": "false"
  },
  {
    "compound": "CN1C(C(=O)Nc2nccs2)=C(O)c2ccccc2S1(=O)=O",
    "class assignment": "false"
  },
  {
    "compound": "CC(C)(C)C1CC[C@H]2c3c([nH]c4ccc(Br)cc34)[C@H]3C(=O)N(c4ccccc4)C(=O)[C@H]3[C@H]2C1 (stereo partly drawn)",
    "class assignment": "false"
  },
  {
    "compound": "COc1ccccc1/C=C1\\CCC(CCN2CCOCC2)C1=O (stereo not drawn)",
    "class assignment": "false"
  },
  {
    "compound": "COCOc1c(OC)c(C2(O)C(=O)N(C)c3ccccc32)c(OCOC)c(OC)c1C1(O)C(=O)N(C)c2ccccc21 (stereo not drawn)",
    "class assignment": "false"
  },
  {
    "compound": "COc1ccc2nc3c(=O)[nH]c(=O)nc-3n(CC(O)C(O)C(O)CO)c2c1 (stereo not drawn)",
    "class assignment": "false"
  },
  {
    "compound": "CC(C)(C)NC(=O)NCc1ccc(Cl)c(Cl)c1",
    "class assignment": "false"
  },
  {
    "compound": "S=C(Nc1ccc2ccccc2c1)Nc1ccc2ccccc2c1",
    "class assignment": "false"
  },
  {
    "compound": "Cc1nc2nn(C)cc2c(=O)n1/N=C/c1ccccc1",
    "class assignment": "false"
  },
  {
    "compound": "COc1cc(C2C3=C(COC3=O)OC(C)(C)Oc3cc4c(cc32)OCO4)cc(OC)c1O (stereo not drawn)",
    "class assignment": "false"
  },
  {
    "compound": "CC1=C2CC[C@@]3(C)C(=CCC3O)C2(C)CCC1=O (stereo partly drawn)",
    "class assignment": "false"
  },
  {
    "compound": "O=C(O)c1ccc(Br)cc1",
    "class assignment": "false"
  },
  {
    "compound": "C/C=C/C=N/N(C(=O)c1cc([N+](=O)[O-])cc([N+](=O)[O-])c1)C1=NC(c2ccccc2)C(c2ccccc2)=NN1 (stereo not drawn)",
    "class assignment": "false"
  },
  {
    "compound": "O=[N+]([O-])c1ccc(OC(=S)N2CCOCC2)cc1",
    "class assignment": "false"
  },
  {
    "compound": "CCOC(=O)CC(C)C1(C=O)CCCCC1=O (stereo not drawn)",
    "class assignment": "false"
  }
]
